Hi there, I'd appreciate the recorded fold improvement of ka (reference LHG-10) for every entry that follows.
# systemUnderTest: T1, recombinant soluble human GARP-TGFβ1 complex (human, UniProt Q14392 20-628; P01137 30-390)
# T1 construct: co-expressed in HEK293E, purified by the Strep-Tag; TGFβ consists of LAP and mature TGFβ; also called shGARP-TGFβ; rhGARP-TGFβ
# T1 sequence (Q14392 other isoform, or with tags, fused parts or gaps limits assumed, chain 1 of 2): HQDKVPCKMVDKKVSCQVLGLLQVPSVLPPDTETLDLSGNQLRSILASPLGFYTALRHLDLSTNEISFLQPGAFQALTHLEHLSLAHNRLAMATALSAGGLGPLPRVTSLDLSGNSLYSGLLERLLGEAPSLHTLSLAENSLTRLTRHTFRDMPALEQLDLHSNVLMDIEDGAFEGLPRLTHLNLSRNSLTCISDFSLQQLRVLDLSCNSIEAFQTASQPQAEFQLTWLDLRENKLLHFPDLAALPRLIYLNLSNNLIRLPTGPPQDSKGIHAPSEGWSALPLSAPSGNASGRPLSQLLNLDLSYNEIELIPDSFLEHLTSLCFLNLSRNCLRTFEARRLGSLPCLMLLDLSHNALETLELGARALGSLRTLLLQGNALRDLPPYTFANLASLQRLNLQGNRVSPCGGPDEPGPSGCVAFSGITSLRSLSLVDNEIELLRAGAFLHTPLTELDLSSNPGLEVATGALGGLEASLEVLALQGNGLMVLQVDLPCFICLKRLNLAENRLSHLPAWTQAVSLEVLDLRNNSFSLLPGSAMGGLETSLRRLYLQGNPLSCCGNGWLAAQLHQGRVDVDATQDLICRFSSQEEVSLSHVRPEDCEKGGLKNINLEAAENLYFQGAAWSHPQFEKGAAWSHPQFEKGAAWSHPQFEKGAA
# T1 sequence (P01137 30-390 limits assumed, chain 2 of 2): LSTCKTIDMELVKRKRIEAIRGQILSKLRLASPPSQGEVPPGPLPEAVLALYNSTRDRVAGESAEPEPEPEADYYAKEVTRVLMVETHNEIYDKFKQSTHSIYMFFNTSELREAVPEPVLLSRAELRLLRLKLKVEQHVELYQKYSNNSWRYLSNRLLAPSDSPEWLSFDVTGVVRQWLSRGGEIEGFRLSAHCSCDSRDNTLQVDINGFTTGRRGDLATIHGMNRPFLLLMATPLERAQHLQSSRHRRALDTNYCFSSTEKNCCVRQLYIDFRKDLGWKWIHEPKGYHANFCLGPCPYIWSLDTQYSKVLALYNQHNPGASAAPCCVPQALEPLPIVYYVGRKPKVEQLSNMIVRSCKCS
# experimentSummary: SPR (Biacore), hGARP-TGFβ1 immobilised
Write the numeric value and append its unit.

fold improvement of ka (reference LHG-10) recorded for this binder, LHG-10.5 (antibody, human IgG1, V domains shown, VK-shuffled variant of LHG-10, human IgG1) VH: EVQLVQPGAELRNSGASVKVSCKASGYRFTSYYIDWVRQAPGQGLEWMGRIDPEDGGTKYAQKFQGRVTFTADTSTSTAYVELSSLRSEDTAVYYCARNEWETVVVGDLMYEYEYWGQGTQVTVSS VL: DIQMTQSPSSLSPSLGDRVTITCQASQTISSFLAWYHQKPGQPPKLLIYRASIPQTGVPSRFSGSGSGTSFTLTIGGLEAEDAGTYYCQQYVSAPPTFGQGTKVELK , is 0.6 fold

fold improvement of ka (reference LHG-10) reported for this binder LHG-10.3 (antibody, human IgG1, V domains shown, VK-shuffled variant of LHG-10, human IgG1) VH: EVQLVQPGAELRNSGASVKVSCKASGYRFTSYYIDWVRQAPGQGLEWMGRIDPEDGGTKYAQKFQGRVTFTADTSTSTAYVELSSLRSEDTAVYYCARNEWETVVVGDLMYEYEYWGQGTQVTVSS VL: DIQMTQSPSSLSASLGDRVTITCQASQSIVSYLAWYQQKPGQAPKLLIYGASRLQTGVPSRFSGSGSGTSFTLTISGLEAEDAGTYYCQQYASAPVTFGQGTGVELK : 0.8 fold

Entry under test: LHG-10.6 (antibody, human IgG1, V domains shown, VK-shuffled variant of LHG-10, human IgG1) VH: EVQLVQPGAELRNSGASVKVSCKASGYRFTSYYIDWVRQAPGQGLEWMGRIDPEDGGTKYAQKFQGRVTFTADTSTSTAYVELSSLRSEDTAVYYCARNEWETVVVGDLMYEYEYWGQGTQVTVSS VL: DIQMTQSPSSLSASLGDRVTITCQASQSISSYLAWYQQKPGQAPNILIYGASRLKTGVPSRFSGSGSGTSFTLTISGLEAEDAGTYYCQQYASVPVTFGQGTKVELK . Its fold improvement of ka (reference LHG-10) was 0.9 fold
